assaySystem: T1, human PACAP38 (human, not fully specified; C-terminal lysine is amidated; N-terminal or C-terminal biotin in the HTRF and PC-12 cell binding assays)
T1 construct: synthetic peptide, bought; also called huPACAP (1-38)
T1 peptide: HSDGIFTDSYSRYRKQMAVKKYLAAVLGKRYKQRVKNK
assay: inhibition of 100 nM biotin-PACAP38 binding to PC-12 cells, TRF
readoutName: IC50 (nM)

>  <binder>
anti-PACAP antibody Ab16 (antibody, human IgG1, kappa, N297A, V domains shown, full-length rabbit/human chimeric antibody) VH: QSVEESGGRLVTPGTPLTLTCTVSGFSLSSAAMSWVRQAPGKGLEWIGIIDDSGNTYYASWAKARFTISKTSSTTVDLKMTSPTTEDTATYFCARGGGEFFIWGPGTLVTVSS VL: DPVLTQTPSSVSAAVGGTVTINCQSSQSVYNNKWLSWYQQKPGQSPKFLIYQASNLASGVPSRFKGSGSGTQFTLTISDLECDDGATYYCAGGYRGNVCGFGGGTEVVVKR

>  <readoutName>
IC50

>  <valueReported>
27.3

$$$$
>  <binder>
anti-PACAP antibody Ab4 (antibody, human IgG1, kappa, N297A, V domains shown, full-length rabbit/human chimeric antibody) VH: QSVEESGGRLVTPGTPLTLTCTVSGFSLSSYDMSWVRQAPGKGLEYIGIINTNDDTWYASWVKGRFTISKTSSTTVDLKMTSLTTEDTATYFCARISDAYVFDYAYYFTLWGQGTLVTVSS VL: ALVMTQTPSSVSAAVGGTVTINCLASQNIYNSLAWYQQKPGQPPKLLIYRASTLASGVSSRFKGSGSGTQFTLTISGVECADAATYYCQQGAGADNIGNPFGGGTEVVVKR

>  <readoutName>
IC50

>  <valueReported>
28.6

$$$$
>  <binder>
anti-PACAP antibody Ab13 (antibody, human IgG1, kappa, N297A, V domains shown, full-length rabbit/human chimeric antibody) VH: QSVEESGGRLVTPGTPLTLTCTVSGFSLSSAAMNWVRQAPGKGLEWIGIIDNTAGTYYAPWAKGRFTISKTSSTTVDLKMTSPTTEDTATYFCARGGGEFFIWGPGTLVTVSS VL: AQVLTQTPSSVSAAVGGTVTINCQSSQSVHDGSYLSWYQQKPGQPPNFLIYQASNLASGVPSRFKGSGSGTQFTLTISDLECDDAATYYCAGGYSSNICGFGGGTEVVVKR

>  <readoutName>
IC50

>  <valueReported>
53.1

$$$$
